B1: Far upstream element-binding protein 1, residues 184 to 257; numbered along this chain, Q96AE4 (parent)
chain: GNAVQEIMIPASKAGLVIGKGGETIKQLQERAGVKMVMIQDGPQNTGADKPLRITGDPYKVQQAKEMVLELIRD

Variants of: B1
test protocol: abundance fitness (aPCA) (normalised: wild type 0, dead -1); higher = more abundant; growth selection in yeast, the domain comes from the species named
condition details: Homo sapiens
assay readout: abundance fitness

# example entries with known answers
M38T ... -0.21
A64G ... -0.051
Q29A ... -0.018
L16M ... -0.018
G22K ... -0.14

// next entry
Find the recorded abundance fitness belonging to D49N and report it.
-0.034

Taken from the Human Domainome abundance scans (Beltran et al. 2025).
